target: MAPKAP-K2 (Homo sapiens); assay: MAPKAP-K2 enzyme activity inhibition (33P-ATP filter plate kinase assay); assay type: biochemical; conditions: MAPKAP-K2 inhibitory activity; assays conducted at typically 1-100 μM; also: key: +: active; ++: more active; +++: very active
Sequence (P49137 whole entry): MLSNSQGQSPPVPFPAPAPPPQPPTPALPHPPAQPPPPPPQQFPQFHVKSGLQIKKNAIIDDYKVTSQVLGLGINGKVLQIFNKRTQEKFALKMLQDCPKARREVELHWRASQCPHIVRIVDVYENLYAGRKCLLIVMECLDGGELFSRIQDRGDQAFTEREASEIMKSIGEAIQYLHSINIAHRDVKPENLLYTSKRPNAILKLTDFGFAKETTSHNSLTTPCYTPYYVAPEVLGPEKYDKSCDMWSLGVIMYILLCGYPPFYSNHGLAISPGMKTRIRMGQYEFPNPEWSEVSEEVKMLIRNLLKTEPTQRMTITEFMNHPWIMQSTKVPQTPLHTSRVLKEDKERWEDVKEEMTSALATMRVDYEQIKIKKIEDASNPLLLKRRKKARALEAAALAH
measurement_type: activity (efficacy against MAPKAP-K2)

Below, each entry is followed by its recorded activity (efficacy against MAPKAP-K2) result.
CCOc1ccc(Nc2c(C)c(N[C@H]3CC[C@H](N)CC3)nc3c(NC(C)=O)cnn23)cc1	+
Cc1c(N[C@H]2CC[C@H](N)CC2)nc2ccnn2c1Nc1ccc(C(=O)NC2CCCC2)cc1	+++
Cc1c(NC2CCC(N)CC2)nc2ccnn2c1Nc1ccc(OC2CCNC2)cc1 (stereo not drawn)	+++
Cc1c(N[C@H]2CC[C@H](N)CC2)nc2ccnn2c1Nc1ccc(-c2csc3ccccc23)cc1	++
Cc1ccccc1-c1ccc(Nc2c(C)c(N[C@H]3CC[C@H](N)CC3)nc3ccnn23)cc1	+++
COc1ccc(Nc2c(C)c(N[C@H]3CC[C@H](N)CC3)nc3ccnn23)cc1	+++
Cc1c(N[C@H]2CC[C@H](N)CC2)nc2ccnn2c1Nc1ccc(OCCc2ccncc2)cc1	+++
CCc1c(N[C@H]2CC[C@H](N)CC2)nc2ccnn2c1Nc1ccc(Oc2ccc(C)cc2)cc1	+++

Note to self: activity (efficacy against MAPKAP-K2) recorded for CCOC(=O)c1ccc(Nc2c(CC)c(N[C@H]3CC[C@H](N)CC3)nc3ccnn23)cc1Cl was +++

Note to self: activity (efficacy against MAPKAP-K2) recorded for N[C@H]1CC[C@H](Nc2cc(NCc3ccc(F)c(Cl)c3)n3ncc(Br)c3n2)CC1 was +

Note to self: activity (efficacy against MAPKAP-K2) recorded for Cc1c(N[C@H]2CC[C@H](N)CC2)nc2ccnn2c1Nc1cccc(OCc2ccccc2)c1 was ++

Note to self: activity (efficacy against MAPKAP-K2) recorded for Cc1c(N[C@H]2CC[C@H](N)CC2)nc2ccnn2c1Nc1ccc(OCCN2CCOCC2)cc1 was +++

* * *

Form field: melting point (one value per entry).

Below, each entry is followed by its recorded melting point result.
CCc1c(N[C@H]2CC[C@H](N)CC2)nc2ccnn2c1Nc1cccc(C(N)=O)c1	206 to 210 °C
C=C(C)CNc1c(CC)c(N[C@H]2CC[C@H](N)CC2)nc2ccnn12	91 to 93 °C

Note to self: melting point recorded for Cc1c(N[C@H]2CC[C@H](N)CC2)nc2ccnn2c1Nc1ccc2ncsc2c1 was 100 to 108 °C

* * *

measurement_type: melting point

Below, each entry is followed by its recorded melting point result.
Cc1c(N[C@H]2CC[C@H](N)CC2)nc2ccnn2c1Nc1ccc2c(c1)OCCO2	68 to 72 °C
N[C@H]1CC[C@H](Nc2cc(Nc3ccc(F)c(Cl)c3)n3ncc(I)c3n2)CC1	153 to 155 °C

Note to self: melting point recorded for Cc1nc2ccc(Nc3c(C)c(N[C@H]4CC[C@H](N)CC4)nc4ccnn34)cc2s1 was 210 to 215 °C

* * *

biological target: UniProt:P49137; assay: MAPKAP-K2 enzyme activity inhibition (33P-ATP filter plate kinase assay); format: biochemical; conditions: MAPKAP-K2 inhibitory activity; assays conducted at typically 1-100 μM; also: key: +: active; ++: more active; +++: very active
measurement_type: activity (efficacy against MAPKAP-K2)

Below, each entry is followed by its recorded activity (efficacy against MAPKAP-K2) result.
Cc1cscc1-c1ccc(Nc2c(C)c(N[C@H]3CC[C@H](N)CC3)nc3ccnn23)cc1	+++
N#Cc1cnn2c(Nc3ccc(F)c(Cl)c3)cc(N[C@H]3CC[C@H](N)CC3)nc12	++
Cc1c(N[C@H]2CC[C@H](N)CC2)nc2ccnn2c1Nc1ccc(-c2cc3ccccc3s2)cc1	+++
CCCNc1c(C)c(N[C@H]2CC[C@H](N)CC2)nc2ccnn12	++

Now take the following compound into account.
Note to self: activity (efficacy against MAPKAP-K2) recorded for CCc1c(N[C@H]2CC[C@H](N)CC2)nc2ccnn2c1Nc1ccc(Cl)cc1 was +++
